Target: PKC delta kinase (Homo sapiens)
Sequence (Q05655 whole entry): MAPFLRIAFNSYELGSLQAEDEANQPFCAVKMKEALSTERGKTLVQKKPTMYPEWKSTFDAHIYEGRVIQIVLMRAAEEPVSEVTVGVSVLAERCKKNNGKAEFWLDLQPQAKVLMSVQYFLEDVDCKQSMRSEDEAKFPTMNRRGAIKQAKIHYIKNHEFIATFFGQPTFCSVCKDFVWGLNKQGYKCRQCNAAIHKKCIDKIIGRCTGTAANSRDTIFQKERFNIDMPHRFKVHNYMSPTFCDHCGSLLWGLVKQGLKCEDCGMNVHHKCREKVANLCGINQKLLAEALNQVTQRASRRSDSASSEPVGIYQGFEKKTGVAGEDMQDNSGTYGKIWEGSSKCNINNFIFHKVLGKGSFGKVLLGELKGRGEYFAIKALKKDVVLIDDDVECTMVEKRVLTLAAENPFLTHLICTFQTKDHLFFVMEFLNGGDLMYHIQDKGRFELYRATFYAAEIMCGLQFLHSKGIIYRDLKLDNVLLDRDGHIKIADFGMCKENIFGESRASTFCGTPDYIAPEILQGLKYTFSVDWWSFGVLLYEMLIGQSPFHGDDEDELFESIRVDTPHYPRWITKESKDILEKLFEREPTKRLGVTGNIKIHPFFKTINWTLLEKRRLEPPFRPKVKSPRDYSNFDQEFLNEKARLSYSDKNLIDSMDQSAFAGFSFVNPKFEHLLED
Assay: PKC delta kinase inhibition, coupled-enzyme NADH absorbance assay (Ki)
Assay type: biochemical
Conditions: 150 μM ATP, 46 nM PKC delta, 30° C.; read-out: Ki PKC delta
Procedure: An assay buffer solution was prepared which consisted of 100 mM HEPES (pH 7.5), 10 mM MgCl2, 25 mM NaCl, 0.1 mM EDTA and 0.01% Brij. […] To 16 μL of this enzyme buffer, in a 384 well plate, was added 1 μL of VRT stock solution in DMSO. The mixture was allowed to equilibrate for 10 mins at 30° C. […] Ki values were calculated from initial rate data by non-linear regression using the Prism software package (Prism 4.0a, Graphpad Software, San Diego, Calif.).
result_type: Ki

[[record]]
compound = "N#CC1(c2cccc(-c3ccnc4[nH]ncc34)c2)CC(F)(F)C1"
experimental_system = "PKC delta kinase (Homo sapiens)"
result_type = "Ki"
result = "> 1200 nM"

[[record]]
compound = "C#Cc1cc(-c2ccnc3[nH]ncc23)cc(C(C)(C)CN)c1"
experimental_system = "PKC delta kinase (Homo sapiens)"
result_type = "Ki"
result = "< 500 nM"

[[record]]
compound = "CCC(C)(CN)c1cccc(-c2ccnc3[nH]ncc23)c1 (stereo not drawn)"
experimental_system = "PKC delta kinase (Homo sapiens)"
result_type = "Ki"
result = "< 50 nM"

[[record]]
compound = "CCC(C)(C#N)c1cc(CCO)cc(-c2ccnc3[nH]ncc23)c1 (stereo not drawn)"
experimental_system = "PKC delta kinase (Homo sapiens)"
result_type = "Ki"
result = "> 2800 nM"

[[record]]
compound = "CC(O)Cc1cc(-c2ccnc3[nH]ncc23)cc(C(C)(C)C#N)c1 (stereo not drawn)"
experimental_system = "PKC delta kinase (Homo sapiens)"
result_type = "Ki"
result = "> 2800 nM"

[[record]]
compound = "CCC(CN)c1cccc(-c2ccnc3[nH]ncc23)c1 (stereo not drawn)"
experimental_system = "PKC delta kinase (Homo sapiens)"
result_type = "Ki"
result = "< 500 nM"

[[record]]
compound = "CCCCNC(CC)c1cccc(-c2ccnc3[nH]ncc23)c1 (stereo not drawn)"
experimental_system = "PKC delta kinase (Homo sapiens)"
result_type = "Ki"
result = "> 1200 nM"

[[record]]
compound = "CCC(C#N)c1cc(C)cc(-c2ccnc3[nH]ncc23)c1 (stereo not drawn)"
experimental_system = "PKC delta kinase (Homo sapiens)"
result_type = "Ki"
result = "> 2800 nM"

[[record]]
compound = "CC(O)c1cc(-c2ccnc3[nH]ncc23)cc(C(C)(C)CN)c1 (stereo not drawn)"
experimental_system = "PKC delta kinase (Homo sapiens)"
result_type = "Ki"
result = "> 2800 nM"


----------
Target: PKC theta kinase (Homo sapiens, UniProt Q04759)
Sequence (Q04759 whole entry): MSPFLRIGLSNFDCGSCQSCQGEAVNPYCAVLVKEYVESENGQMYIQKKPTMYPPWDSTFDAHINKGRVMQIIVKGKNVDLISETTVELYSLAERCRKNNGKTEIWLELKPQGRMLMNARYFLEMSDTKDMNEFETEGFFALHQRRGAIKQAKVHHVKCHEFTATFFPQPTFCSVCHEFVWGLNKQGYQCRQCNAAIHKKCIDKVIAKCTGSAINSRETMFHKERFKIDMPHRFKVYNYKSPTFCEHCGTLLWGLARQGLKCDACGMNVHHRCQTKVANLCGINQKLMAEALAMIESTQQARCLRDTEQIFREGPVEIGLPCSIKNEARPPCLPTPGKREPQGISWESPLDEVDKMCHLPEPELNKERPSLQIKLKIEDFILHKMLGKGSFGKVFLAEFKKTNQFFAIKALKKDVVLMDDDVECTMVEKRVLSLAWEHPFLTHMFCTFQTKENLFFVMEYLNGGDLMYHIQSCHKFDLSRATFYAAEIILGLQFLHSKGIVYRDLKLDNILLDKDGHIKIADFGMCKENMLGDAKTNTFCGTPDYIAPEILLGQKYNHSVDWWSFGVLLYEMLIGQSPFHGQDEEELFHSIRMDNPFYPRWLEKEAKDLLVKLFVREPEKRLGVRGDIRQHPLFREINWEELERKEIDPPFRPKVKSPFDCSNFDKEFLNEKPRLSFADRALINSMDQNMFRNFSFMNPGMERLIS
Experiment: PKC theta kinase inhibition, coupled-enzyme NADH absorbance assay (Ki)
Format: biochemical
Details: 240 μM ATP, 18 nM PKC theta, 30° C.; read-out: Ki PKC theta
pKi: −log10 of the molar value.
result_type: pKi

[[record]]
compound = "N#CC1(c2cccc(-c3ccnc4[nH]nc(C(F)(F)F)c34)c2)CC1 [Compound 273]"
result = "> 7.30"

[[record]]
compound = "CCC(C)(CC#N)c1cc(-c2ccnc3[nH]ncc23)cc(C(F)(F)CCC2CCCC2)c1 (stereo not drawn) [Compound 239]"
result = "< 6.15"

[[record]]
compound = "COc1cc(-c2ccnc3[nH]ncc23)cc(C(C)(C)CN)c1 [Compound 142]"
result = "> 6.30"

[[record]]
compound = "Cc1cc(-c2ccnc3[nH]nc(C(F)(F)F)c23)cc(C2(CN)CCC2)c1 [Compound 215]"
result = "> 7.30"

[[record]]
compound = "CCCc1cc(-c2ccnc3[nH]ncc23)cc(C(C)(C)CC#N)c1 [Compound 218]"
result = "> 6.30"

[[record]]
compound = "CCC(C)(C#N)c1cc(CCO)cc(-c2ccnc3[nH]ncc23)c1 (stereo not drawn) [Compound 101]"
result = "> 7.30"

[[record]]
compound = "CC(C)(CN)c1cc(-c2ccnc3[nH]ncc23)cc(N2CCCCC2)c1 [Compound 33]"
result = "< 5.55"

[[record]]
compound = "CC(C)(C#N)c1cc(-c2ccc[nH]2)cc(-c2ccnc3[nH]ncc23)c1 [Compound 59]"
result = "> 6.30"

[[record]]
compound = "CC(C#N)(Cc1ccccc1)c1cccc(-c2ccnc3[nH]ncc23)c1 (stereo not drawn) [Compound 100]"
result = "< 6.68"


----------
Molecular target: PKC delta kinase (Homo sapiens)
Assay: PKC delta kinase inhibition, coupled-enzyme NADH absorbance assay (Ki)
Assay type: biochemical
Settings: 150 μM ATP, 46 nM PKC delta, 30° C.; read-out: Ki PKC delta
pKi: −log10 of the molar value.
# key: entry, value: pKi
result_type: pKi

[[record]]
compound = "N[C@H]1CCC[C@@H]1c1cccc(-c2ccnc3[nH]ncc23)c1"
experimental_system = "PKC delta kinase (Homo sapiens)"
result = "< 5.92"

[[record]]
compound = "CC(C#N)(Cc1ccccn1)c1cccc(-c2ccnc3[nH]ncc23)c1 (stereo not drawn)"
experimental_system = "PKC delta kinase (Homo sapiens)"
result = "< 5.70"

[[record]]
compound = "CCC(C)(CN)c1cc(Br)cc(-c2ccnc3[nH]ncc23)c1 (stereo not drawn)"
experimental_system = "PKC delta kinase (Homo sapiens)"
result = "> 6.30"

[[record]]
compound = "CC(C)=CC1(c2cccc(-c3ccnc4[nH]ncc34)c2)CCNC1 (stereo not drawn)"
experimental_system = "PKC delta kinase (Homo sapiens)"
result = "> 6.30"

[[record]]
compound = "OCC1(c2cccc(-c3ccnc4[nH]ncc34)c2)CC1"
experimental_system = "PKC delta kinase (Homo sapiens)"
result = "< 5.70"

[[record]]
compound = "C=CCc1cc(-c2ccnc3[nH]ncc23)cc(C(C)(C)CN)c1"
experimental_system = "PKC delta kinase (Homo sapiens)"
result = "> 5.55"

[[record]]
compound = "CC(CN)(Cc1ccncc1)c1cccc(-c2ccnc3[nH]ncc23)c1 (stereo not drawn)"
experimental_system = "PKC delta kinase (Homo sapiens)"
result = "> 6.30"

[[record]]
compound = "Cc1cc(-c2ccnc3[nH]ncc23)cc(C(N)C2CC2(F)F)c1 (stereo not drawn)"
experimental_system = "PKC delta kinase (Homo sapiens)"
result = "> 5.55"

[[record]]
compound = "COCCCC(C)(CN)c1cccc(-c2ccnc3[nH]ncc23)c1 (stereo not drawn)"
experimental_system = "PKC delta kinase (Homo sapiens)"
result = "> 6.30"


----------
Biological target: UniProt:Q04759
Test: PKC theta kinase inhibition, coupled-enzyme NADH absorbance assay (Ki)
Assay type: biochemical
Conditions: 240 μM ATP, 18 nM PKC theta, 30° C.; read-out: Ki PKC theta
result_type: Ki

[[record]]
compound = "CC(CN)(Cc1ccccc1)c1cccc(-c2ccnc3[nH]ncc23)c1 (stereo not drawn)"
result_type = "Ki"
result = "< 50 nM"

[[record]]
compound = "N#C[C@]1(c2cccc(-c3ccnc4[nH]ncc34)c2)C[C@@H](O)C1"
result_type = "Ki"
result = "< 500 nM"

[[record]]
compound = "C#Cc1cc(-c2ccnc3[nH]ncc23)cc(C(C)(C)C#N)c1"
result_type = "Ki"
result = "< 500 nM"

[[record]]
compound = "Cc1cnc2[nH]ncc2c1-c1cccc(C(C)(C)CN)c1"
result_type = "Ki"
result = "< 2800 nM"

[[record]]
compound = "Cc1cc(-c2ccnc3[nH]ncc23)cc(C(N)C2CC2(F)F)c1 (stereo not drawn)"
result_type = "Ki"
result = "< 500 nM"

[[record]]
compound = "CCC(C)(CO)c1cc(C)cc(-c2ccnc3[nH]ncc23)c1 (stereo not drawn)"
result_type = "Ki"
result = "< 50 nM"

[[record]]
compound = "CNCc1cc(Br)cc(-c2ccnc3[nH]ncc23)c1"
result_type = "Ki"
result = "< 500 nM"

[[record]]
compound = "C#Cc1cc(-c2ccnc3[nH]ncc23)cc(C(C)(C)CN)c1"
result_type = "Ki"
result = "< 500 nM"

[[record]]
compound = "CC(C)(N)CCc1cc(-c2ccnc3[nH]nc(C(F)(F)F)c23)cc(C2(C#N)CC2)c1"
result_type = "Ki"
result = "< 50 nM"


----------
Target: PKC delta kinase (Homo sapiens)
Assay: PKC delta kinase inhibition, coupled-enzyme NADH absorbance assay (Ki)
Type: biochemical
Settings: 150 μM ATP, 46 nM PKC delta, 30° C.; read-out: Ki PKC delta
Each entry below carries its recorded Ki.
result_type: Ki

[[record]]
molecule = "CC(C)(CN)c1cc(Br)cc(-c2ccnc3[nH]ncc23)c1"
result_type = "Ki"
result = "< 500 nM"

[[record]]
molecule = "Cc1cc(-c2ccnc3[nH]ncc23)cc(C(C)(C)C#N)c1"
result_type = "Ki"
result = "< 2800 nM"

[[record]]
molecule = "N#CC1(c2cc(CCN)cc(-c3ccnc4[nH]ncc34)c2)CC1"
result_type = "Ki"
result = "> 2000 nM"

[[record]]
molecule = "CC(C)(C#N)c1cc(-c2ccnc3[nH]ncc23)cc(N2CCC2)c1"
result_type = "Ki"
result = "> 2800 nM"

[[record]]
molecule = "C#CC1(c2cc(C)cc(-c3ccnc4[nH]ncc34)c2)CNC(=O)O1 (stereo not shown)"
result_type = "Ki"
result = "< 500 nM"

[[record]]
molecule = "CCSc1cc(-c2ccnc3[nH]ncc23)cc(C(C)(C#N)CC)c1 (stereo not shown)"
result_type = "Ki"
result = "> 2000 nM"

[[record]]
molecule = "CCC(C)(CN)c1cccc(-c2ccnc3[nH]nc(C)c23)c1 (stereo not shown)"
result_type = "Ki"
result = "< 50 nM"

[[record]]
molecule = "N#CC1(c2cc(CCCN)cc(-c3ccnc4[nH]nc(C(F)(F)F)c34)c2)CC1"
result_type = "Ki"
result = "< 2800 nM"

[[record]]
molecule = "N#CC1(c2cc(-c3ccnc4[nH]ncc34)cc(C(F)(F)CN)c2)CC1"
result_type = "Ki"
result = "< 2800 nM"

[[record]]
molecule = "CCC(C)(CN)c1cccc(-c2ccnc3[nH]nc(Cl)c23)c1 (stereo not shown)"
result_type = "Ki"
result = "< 50 nM"

